Test system: ATP;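 further: ATP exposure 15 min at 22 °C before imaging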
Assay: switch fluorescence ratio, 500 uM ATP over buffer (Cy3 cluster intensity, sum of 5 cycles each) (fold (ratio)); higher = stronger signal-on switching upon ATP binding; sequences stand for … in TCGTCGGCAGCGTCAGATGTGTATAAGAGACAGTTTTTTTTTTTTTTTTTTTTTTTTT…TC
Details: aptamer strand: ATP DNA aptamer (quencher-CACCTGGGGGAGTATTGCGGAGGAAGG + anchor), 100 nM annealed; ATP concentration: 500 uM
Listing of entries alongside the reported switch fluorescence ratio.
Measurement Label: switch fluorescence ratio

- GGGGGTTTAA: 1.02
- ATAAGTGATA: 1.02
- GCTGTAGTTT: 0.973
- GGAAATGGTG: 1.1
- TTAGGGGCAG: 0.981
- GCGGGCGGGA: 1.03
- TACAGAGGCA: 1.02
- ACGGCAACAT: 1.31
- TCAAGACCTT: 1.19
- ATAGTGTTGA: 1.03
- GGAGTGCCAG: 1
- GCGCTAGTTT: 1
- CAATAGAGGG: 0.991
- GCAATTGTTT: 1.02
- GGTTTTGGGG: 1.01
- TAGGGCGCGT: 0.995
- GGCTCTTATT: 1.01
- CCGCTTGGTT: 1.23
- CCGATAGGCA: 1.12
- CGACGATCGT: 0.971
- TATTAGTGGG: 0.979
- TTGTGAGGGC: 1.02
- TTGCTGGGCC: 1.02
- TGGAAGGTTG: 0.981
- CGGCGAACTC: 1.11
- TCCGGATCGG: 1.03
- ATGGGAACGG: 0.994
- GCGACGAAGG: 1.02
- TGTGTTCTAG: 1
- GTAAGTTTTT: 0.984
- GGGGACCATT: 1.01
- TTACGTTGGG: 0.997
- ACTTTGTATT: 0.999
- AAAAACATTT: 0.998
- TTTCTCTGGT: 0.993
- AGTTGGTTAG: 1
- GTGGAAAGCG: 0.981
- TGTGGTATGG: 1.01
- TATGGGCTAC: 1.56
- CTCAATAGGG: 1.01
- GGGGTACGTA: 1
- ACTTGGACAT: 1.04
- GGGAGGGGG: 0.965
